- assay-comment: Selectivity index, ratio of IC50 for human MCF7 cells to IC50 for chloroquine-resistant Plasmodium falciparum Dd2
- Type: toxicity, cell-based
- condition-set: read-out: Selectivity Index
reported-property: selectivity ratio

[
  {
    "structure-as-smiles": "C[C@H](C/C=C/C(C)(C)O)[C@H]1CC[C@@]2(C)[C@@H]3[C@@H](O)C=C4[C@@H](CC[C@H](O)C4(C)C)[C@]3(C)CC[C@]12C",
    "recorded-measurement": 0.9
  },
  {
    "structure-as-smiles": "CC(C)=C[C@H](O)C[C@@H](C)[C@H]1CC[C@@]2(C)[C@@H]3C(=O)C=C4[C@@H](CC[C@H](O)C4(C)C)[C@]3(C)CC[C@]12C",
    "recorded-measurement": 2.3
  },
  {
    "structure-as-smiles": "CC(C)=C[C@H](O)C[C@@H](C)[C@H]1CC[C@@]2(C)[C@@H]3[C@@H](O)C=C4[C@@H](CC[C@H](O)[C@]4(C)CO)[C@]3(C)CC[C@]12C",
    "recorded-measurement": 1.7
  }
]

* * *

Catalogue of selectivity ratio readings, one per entry.
- assay-comment: Selectivity index, ratio of IC50 for human MCF7 cells to IC50 for chloroquine-resistant Plasmodium falciparum Dd2
- Assay type: toxicity, cell-based
- condition-set: read-out: Selectivity Index
reported-property: selectivity ratio

[
  {
    "molecule": "COC(C)(C)/C=C/C[C@@H](C)[C@H]1CC[C@@]2(C)[C@@H]3[C@@H](O)C=C4[C@@H](CC[C@H](O)[C@]4(C)CO)[C@]3(C)CC[C@]12C",
    "operator": "=",
    "recorded-measurement": 1.8
  },
  {
    "molecule": "CO[C@H]1C=C2[C@@H](CC[C@H](O)[C@]2(C)CO)[C@]2(C)CC[C@]3(C)[C@@H]([C@H](C)C[C@@H](O)C=C(C)C)CC[C@@]3(C)[C@H]12",
    "operator": "=",
    "recorded-measurement": 1.7
  },
  {
    "molecule": "CC(=O)C[C@@H](C)[C@H]1CC[C@@]2(C)[C@@H]3C(=O)C=C4[C@@H](CC[C@H](O)[C@]4(C)CO)[C@]3(C)CC[C@]12C",
    "operator": ">",
    "recorded-measurement": 2.9
  },
  {
    "molecule": "C[C@H](C/C=C/C(C)(C)O)[C@H]1CC[C@@]2(C)[C@@H]3[C@@H](O)C=C4[C@@H](CC[C@H](O)C4(C)C)[C@]3(C)C[C@@H](O)[C@]12C",
    "operator": ">",
    "recorded-measurement": 7.6
  },
  {
    "molecule": "C[C@H](C/C=C/C(C)(C)O)[C@H]1CC[C@@]2(C)[C@@H]3[C@@H](O)C=C4[C@@H](CC[C@H](O)[C@]4(C)CO)[C@]3(C)CC[C@]12C",
    "operator": "=",
    "recorded-measurement": 2.4
  },
  {
    "molecule": "CO[C@H]1C=C2[C@@H](CC[C@H](O)C2(C)C)[C@]2(C)C[C@@H](O)[C@]3(C)[C@@H]([C@H](C)C/C=C/C(C)(C)O)CC[C@@]3(C)[C@H]12",
    "operator": "=",
    "recorded-measurement": 2
  },
  {
    "molecule": "CC(C)=C[C@H](O)C[C@@H](C)[C@H]1CC[C@@]2(C)[C@@H]3C=C[C@@]45OC[C@]3(CC[C@]12C)[C@@H]4CC[C@H](O)C5(C)C",
    "operator": "=",
    "recorded-measurement": 3.7
  },
  {
    "molecule": "C=C(C)[C@@H](O)[C@H](O)C[C@@H](C)[C@H]1CC[C@@]2(C)[C@@H]3[C@@H](O)C=C4[C@@H](CC[C@H](O)[C@]4(C)CO)[C@]3(C)CC[C@]12C",
    "operator": "=",
    "recorded-measurement": 1.4
  },
  {
    "molecule": "CC(C)=CC(=O)C[C@@H](C)[C@H]1CC[C@@]2(C)[C@@H]3C(=O)C=C4[C@@H](CC[C@H](O)[C@]4(C)CO)[C@]3(C)CC[C@]12C",
    "operator": "=",
    "recorded-measurement": 3.2
  },
  {
    "molecule": "COC(C)(C)/C=C/C[C@@H](C)[C@H]1CC[C@@]2(C)[C@@H]3[C@@H](O[C@H]4O[C@@H](CO)[C@H](O)[C@H](O)[C@@H]4O)C=C4[C@@H](CC[C@H](O)C4(C)C)[C@]3(C)CC[C@]12C [BALSAMINOSIDE A]",
    "operator": "=",
    "recorded-measurement": 4.7
  }
]

* * *

Listed here: items and their measured selectivity ratio.
- assay-comment: Selectivity index, ratio of IC50 for human MCF7 cells to IC50 for chloroquine-sensitive Plasmodium falciparum 3D7
- Type: toxicity, cell-based
- condition-set: read-out: Selectivity Index

[
  {
    "compound": "CC(C)=C[C@H](O)C[C@@H](C)[C@H]1CC[C@@]2(C)[C@@H]3C=C[C@@]45OC[C@]3(CC[C@]12C)[C@@H]4CC[C@H](O)C5(C)C",
    "operator": "=",
    "selectivity ratio": 4.2
  },
  {
    "compound": "COC(C)(C)/C=C/C[C@@H](C)[C@H]1CC[C@@]2(C)[C@@H]3[C@@H](O[C@H]4O[C@@H](CO)[C@H](O)[C@H](O)[C@@H]4O)C=C4[C@@H](CC[C@H](O)C4(C)C)[C@]3(C)CC[C@]12C [BALSAMINOSIDE A]",
    "operator": "=",
    "selectivity ratio": 4.2
  },
  {
    "compound": "CC(=O)C[C@@H](C)[C@H]1CC[C@@]2(C)[C@@H]3C(=O)C=C4[C@@H](CC[C@H](O)[C@]4(C)CO)[C@]3(C)CC[C@]12C",
    "operator": ">",
    "selectivity ratio": 5.1
  }
]

* * *

- assay-comment: Selectivity index, ratio of IC50 for human MCF7 cells to IC50 for chloroquine-sensitive Plasmodium falciparum 3D7
- Format: toxicity, cell-based
- condition-set: read-out: Selectivity Index
Entries get a class label from measured selectivity ratio. See ranges: low = under 2, moderate = from 2 up to 3, high = 3 and over

[
  {
    "molecule": "CC(C)=CC(=O)C[C@@H](C)[C@H]1CC[C@@]2(C)[C@@H]3C(=O)C=C4[C@@H](CC[C@H](O)[C@]4(C)CO)[C@]3(C)CC[C@]12C [BALSAMINOL C]",
    "class-name": "high"
  },
  {
    "molecule": "C=C(C)[C@@H](O)[C@H](O)C[C@@H](C)[C@H]1CC[C@@]2(C)[C@@H]3[C@@H](O)C=C4[C@@H](CC[C@H](O)[C@]4(C)CO)[C@]3(C)CC[C@]12C [BALSAMINAPENTAOL A]",
    "class-name": "high"
  },
  {
    "molecule": "C[C@H](C/C=C/C(C)(C)O)[C@H]1CC[C@@]2(C)[C@@H]3[C@@H](O)C=C4[C@@H](CC[C@H](O)C4(C)C)[C@]3(C)C[C@@H](O)[C@]12C [CUCURBALSAMINOL A]",
    "class-name": "high"
  },
  {
    "molecule": "CO[C@H]1C=C2[C@@H](CC[C@H](O)C2(C)C)[C@]2(C)C[C@@H](O)[C@]3(C)[C@@H]([C@H](C)C/C=C/C(C)(C)O)CC[C@@]3(C)[C@H]12",
    "class-name": "high"
  },
  {
    "molecule": "C[C@H](C/C=C/C(C)(C)O)[C@H]1CC[C@@]2(C)[C@@H]3[C@@H](O)C=C4[C@@H](CC[C@H](O)C4(C)C)[C@]3(C)CC[C@]12C",
    "class-name": "low"
  },
  {
    "molecule": "C[C@H](C/C=C/C(C)(C)O)[C@H]1CC[C@@]2(C)[C@@H]3[C@@H](O)C=C4[C@@H](CC[C@H](O)[C@]4(C)CO)[C@]3(C)CC[C@]12C [BALSAMINAGENIN A]",
    "class-name": "high"
  },
  {
    "molecule": "COC(C)(C)/C=C/C[C@@H](C)[C@H]1CC[C@@]2(C)[C@@H]3[C@@H](O)C=C4[C@@H](CC[C@H](O)[C@]4(C)CO)[C@]3(C)CC[C@]12C [BALSAMINAGENIN B]",
    "class-name": "low"
  },
  {
    "molecule": "CC(C)=C[C@H](O)C[C@@H](C)[C@H]1CC[C@@]2(C)[C@@H]3C(=O)C=C4[C@@H](CC[C@H](O)C4(C)C)[C@]3(C)CC[C@]12C [BALSAMINOL E]",
    "class-name": "moderate"
  },
  {
    "molecule": "CC(C)=C[C@H](O)C[C@@H](C)[C@H]1CC[C@@]2(C)[C@@H]3[C@@H](O)C=C4[C@@H](CC[C@H](O)[C@]4(C)CO)[C@]3(C)CC[C@]12C [BALSAMINOL A]",
    "class-name": "moderate"
  }
]
